Kindly state pIC50 for each of the entries shown.
system.name: DR7 (DRB1*0701) (Homo sapiens, UniProt P01903+P01911, A100R/A102G/A103Q/D57E/D86V/E43K/F76Y/K127E/L162R/M171V/P40G/Q125H/Q99D/R33Q/R42Y/R54Q/S133A/S66F/T210M/V115G/Y107V/Y59L/Y89S)
assay.explanation: biochemical
Assay type: binding
pIC50: −log10 of the molar value.

For each of the compounds below, note its pIC50.
1. CC[C@H](C)[C@H](NC(=O)[C@H](CCCCN)NC(=O)[C@H](CCSC)NC(=O)[C@H](CC(=O)O)NC(=O)[C@H](CCCNC(=N)N)NC(=O)[C@H](CCC(=O)O)NC(=O)[C@H](CC(C)C)NC(=O)[C@H](CCCCN)NC(=O)[C@H](Cc1ccccc1)NC(=O)[C@@H](N)Cc1ccccc1)C(=O)N[C@@H](CC(N)=O)C(=O)N[C@@H](CS)C(=O)N[C@@H](CO)C(=O)NCC(=O)N[C@@H](CCCCN)C(=O)O [Peptide 68.0168]
2. CC[C@H](C)[C@H](NC(=O)[C@H](C)NC(=O)[C@H](CCCCN)NC(=O)[C@H](Cc1c[nH]cn1)NC(=O)[C@H](C)NC(=O)[C@H](CCCCN)NC(=O)[C@H](CO)NC(=O)[C@H](CCCCN)NC(=O)[C@H](CO)NC(=O)[C@@H](NC(=O)[C@H](CC(N)=O)NC(=O)[C@H](Cc1ccc(O)cc1)NC(=O)[C@H](C)N)[C@@H](C)CC)C(=O)N[C@@H](CCC(=O)O)C(=O)N[C@@H](CC(C)C)C(=O)O [Peptide 89.0159]

Solution:
1: < 4.70; 2: < 4.70

Problem: Need pIC50, item CC(C)C[C@H](NC(=O)[C@H](CC(=O)O)NC(=O)[C@@H](NC(=O)[C@@H](NC(=O)[C@H](CCC(=O)O)NC(=O)[C@@H]1CCCN1C(=O)[C@H](CCC(N)=O)NC(=O)[C@H](CC(C)C)NC(=O)[C@H](CC(=O)O)NC(=O)[C@@H](N)CC(C)C)[C@@H](C)O)[C@@H](C)O)C(=O)N[C@@H](Cc1ccc(O)cc1)C(=O)N[C@@H](CS)C(=O)N[C@@H](Cc1ccc(O)cc1)C(=O)N[C@@H](CCC(=O)O)C(=O)N[C@@H](CCC(N)=O)C(=O)O [Peptide 1543.04]
Solution: < 4.70
